System: HGGX6 (H3.3 G34R paediatric high-grade glioma line)
Assay: EC50 (inflection of fitted growth-inhibition curve) (log10 M)
So I've got a bunch of compounds here, and I need their EC50 (log10 M) values.

Examples from the recorded data:
{"compound": "CN(C)CCCNC(=O)c1ccc(-c2cc(O)c3ncccc3c2)cc1", "recorded_measurement": -4.67}
{"compound": "CCCCCCCCCCCC[N+](C)(C)CCOc1ccccc1", "recorded_measurement": -5.11}
{"compound": "CCCCOc1ccc(OCCCN2CCOCC2)cc1", "recorded_measurement": -4.97}
{"compound": "Cc1cn(CCN2CCN(c3ccccc3-c3cc(C#N)cc(C(=O)NCCCN4CCCC4)c3)CC2)c2ccccc12", "recorded_measurement": -5.12}
{"compound": "CO[C@H]1C[C@@H]2CC[C@@H](C)[C@@](O)(O2)C(=O)C(=O)N2CCCC[C@H]2C(=O)O[C@H]([C@H](C)C[C@@H]2CC[C@@H](OCCO)[C@H](OC)C2)CC(=O)[C@H](C)/C=C(\\C)[C@@H](O)[C@@H](OC)C(=O)[C@H](C)C[C@H](C)/C=C/C=C/C=C/1C", "recorded_measurement": -4.78}

Hi there! I need EC50 (log10 M) for each item below, if you can.
1. COc1ccc(C[C@H](NC(=O)[C@H](C)NC(=O)CN2CCOCC2)C(=O)N[C@@H](Cc2ccccc2)C(=O)C2(C)CO2)cc1 (stereo in doubt)
2. Cc1c(-c2ccc(O)cc2)n(Cc2ccc(OCCN3CCCCCC3)cc2)c2ccc(O)cc12

1: -5.97; 2: -4.93

Dear colleague, could you send me EC50 (log10 M) for each of the items below? Thanks.
1. Cc1c(CN2CCC(Nc3ncnc4sc(CC(F)(F)F)cc34)CC2)ccc2c1cc(C#N)n2Cc1cn[nH]c1
2. COc1cc2nc(N3CCN(C(=O)c4ccco4)CC3)nc(N)c2cc1OC
3. CCCCCCCCOc1ccccc1C(=O)Nc1ccc(C(=O)OCC[N+](C)(CC)CC)cc1
4. CC[C@]1(O)C[C@@H]2CN(CCc3c([nH]c4ccccc34)[C@@](C(=O)OC)(c3cc4c(cc3OC)N(C)[C@H]3[C@@](O)(C(=O)OC)[C@H](OC(C)=O)[C@]5(CC)C=CCN6CC[C@]43[C@@H]65)C2)C1
5. COc1cccc2c1C(=O)c1c(O)c3c(c(O)c1C2=O)C[C@@](O)(C(C)=O)C[C@@H]3O[C@H]1C[C@H](N)[C@H](O)[C@H](C)O1
6. Cc1ccc(NC2=CC(=O)c3sc(C)nc3C2=O)cc1
7. COC1=CC(c2cc3ccccc3[nH]2)=N/C1=C\c1[nH]c(C)cc1C

[-4.9, -5.03, -4.88, -5.46, -5.62, -6.18, -5.1]

Name the recorded EC50 (log10 M) of the item Clc1ccc(CCC(Cn2ccnc2)Sc2c(Cl)cccc2Cl)cc1 (stereo not given) in your answer.
-4.79

====

Hi there, I'd appreciate the recorded area under dose-response curve for every entry that follows.
Test system: HGGX6
Experiment: area under dose-response curve of % growth inhibition (log2 RLU vs DMSO / staurosporine), 1e-11 to 1e-4 M (% x log10 M); higher = more growth inhibition

Example cases with answers are listed next.
{"compound": "CCC(=O)N1CCOc2c(cc(-c3ccc(OC)c(OC)c3)cc2OC[C@H]2CCCN(C)C2)C1", "area under dose-response curve": 16.4}
{"compound": "Cc1ccc(NC(=O)c2ccc(CN3CCN(C)CC3)cc2)cc1Nc1nc(-c2cccnc2)cs1", "area under dose-response curve": 64.6}
{"compound": "CCc1c2c(nc3ccc(O)cc13)-c1cc3c(c(=O)n1C2)COC(=O)[C@]3(O)CC", "area under dose-response curve": 65.4}

For every item in the list below, what is its measured area under dose-response curve?
1. CC(C)(C)c1nc(-c2cccc(NS(=O)(=O)c3c(F)cccc3F)c2F)c(-c2ccnc(N)n2)s1
2. Cc1oncc1C(=O)Nc1ccc(C(F)(F)F)cc1 [LEFLUNOMIDE]

1. 21.9
2. 2.22

====

Could you please report measured maximal growth inhibition for the items listed next?
Tested on: SUDIPGXIII (diffuse intrinsic pontine glioma line)
Experiment: maximal growth inhibition (yFin) relative to DMSO / staurosporine; higher = more efficacious
One number for each entry, in %.

Some entries whose results are on file:
{"molecule": "COCC1(CO)C(=O)C2CCN1CC2 (stereo not given)", "maximal growth inhibition, %": 97.3}
{"molecule": "CC(=O)c1ccc2c(c1)c1cc(C(C)=O)ccc1n2CCNC(C)C", "maximal growth inhibition, %": 96.5}
{"molecule": "Cc1ccc(C(=O)Nc2ccc(CN3CCN(C)CC3)c(C(F)(F)F)c2)cc1C#Cc1cnc2cccnn12", "maximal growth inhibition, %": 96}
{"molecule": "CC(C)C[C@H](NC(=O)[C@H](Cc1ccccc1)NC(=O)c1cnccn1)B(O)O", "maximal growth inhibition, %": 96.5}

Okay, now this molecule:
Report value: maximal growth inhibition, system: SUDIPGXIII, molecule: `Cc1[nH]c2ccccc2c1CCNCc1ccc(/C=C/C(=O)NO)cc1`
93.9

====

Test system: HGGX6
Assay: area under dose-response curve of % growth inhibition (log2 RLU vs DMSO / staurosporine), 1e-11 to 1e-4 M (% x log10 M); higher = more growth inhibition
Exercise: state measured area under dose-response curve for each of the compounds provided.
Give bare numbers.

{"compound": "C[C@@H](O[C@H]1OCCN(Cc2n[nH]c(=O)[nH]2)[C@H]1c1ccc(F)cc1)c1cc(C(F)(F)F)cc(C(F)(F)F)c1 [APREPITANT]", "area under dose-response curve": 58.5}
{"compound": "C[C@H]1[C@H](OC(=O)CCC(=O)O)O[C@@H]2O[C@@]3(C)CC[C@H]4[C@H](C)CC[C@@H]1[C@@]24OO3 [ARTESUNATE]", "area under dose-response curve": 23.5}
{"compound": "CCc1ccc(CCOc2ccc(CC3SC(=O)NC3=O)cc2)nc1 (configuration not stated)", "area under dose-response curve": 11.5}
{"compound": "O=C1COc2c(CCNCCN(C(=O)CCNCCc3ccc(Cl)c(Cl)c3)C3CCCCC3)ccc(O)c2N1", "area under dose-response curve": 61.6}
{"compound": "Cc1cn(-c2cc(NC(=O)c3ccc(C)c(Nc4nccc(-c5cccnc5)n4)c3)cc(C(F)(F)F)c2)cn1", "area under dose-response curve": 16.8}

# return area under dose-response curve for each item in the list
1. Nc1nccc2c1ncn2[C@@H]1C=C(CO)[C@@H](O)[C@H]1O
2. CC(=O)O[C@H]1C(=O)[C@@]2(C)[C@H]([C@H](OC(=O)c3ccccc3)[C@]3(O)C[C@H](OC(=O)[C@H](O)[C@@H](NC(=O)c4ccccc4)c4ccccc4)C(C)=C1C3(C)C)[C@]1(OC(C)=O)CO[C@@H]1C[C@@H]2O

1: 36.5; 2: 55.2

// batch mode: one area under dose-response curve value per listed entry
1. Clc1ccc(C(Cn2ccnc2)OCc2csc3c(Cl)cccc23)c(Cl)c1 (configuration not stated)
2. CN(C)C/C=C/C(=O)Nc1ccc(C(=O)Nc2cccc(Nc3ncc(Cl)c(-c4c[nH]c5ccccc45)n3)c2)cc1
3. CCC(C)(C)C(=O)O[C@H]1C[C@@H](C)C=C2C=C[C@H](C)[C@H](CC[C@@H]3C[C@@H](O)CC(=O)O3)[C@H]21
4. O=C(c1ccc(Nc2nccc(-c3cc4ccccc4s3)n2)cc1)N1CCC(N2CCCC2)CC1

1: 50.7; 2: 267; 3: 24.4; 4: 88.2

Give measured area under dose-response curve for every item shown.
1. OC1(c2ccc(Cl)c(C(F)(F)F)c2)CCN(CCCC(c2ccc(F)cc2)c2ccc(F)cc2)CC1
2. Cc1cc(C2CCCCC2)n(O)c(=O)c1
3. Cc1nc(Nc2ncc(C(=O)Nc3c(C)cccc3Cl)s2)cc(N2CCN(CCO)CC2)n1
4. C[C@H]1C[C@H]2[C@@H]3CCC4=CC(=O)C=C[C@]4(C)[C@@]3(F)[C@@H](O)C[C@]2(C)[C@@]1(O)C(=O)CO

1: 104; 2: 142; 3: 61.1; 4: 16.4

====

System: DIPGX37 (H3.3 K27M diffuse intrinsic pontine glioma line)
Test: EC50 (inflection of fitted growth-inhibition curve) (log10 M)
measurement_name: EC50 (log10 M)
Answers are plain numbers.

Consider the reported EC50 (log10 M) for these compounds:
{"compound": "CC/C(=C(\\c1ccccc1)c1ccc(OCCN(C)C)cc1)c1ccccc1", "measurement_name": "EC50 (log10 M)", "recorded_measurement": -4.61}
{"compound": "Cc1c(N)nc([C@H](CC(N)=O)NC[C@H](N)C(N)=O)nc1C(=O)N[C@H](C(=O)N[C@H](C)[C@@H](O)[C@H](C)C(=O)N[C@H](C(=O)NCCc1nc(-c2nc(C(=O)NCCC[S+](C)C)cs2)cs1)[C@@H](C)O)[C@@H](OC1OC(CO)C(O)C(O)C1OC1OC(CO)C(O)C(OC(N)=O)C1O)c1cnc[nH]1 (stereo not given in full)", "measurement_name": "EC50 (log10 M)", "recorded_measurement": -5.22}
{"compound": "COc1c(C)c2c(c(O)c1C/C=C(\\C)CCC(=O)OCCN1CCOCC1)C(=O)OC2 [MYCOPHENOLATE MOFETIL]", "measurement_name": "EC50 (log10 M)", "recorded_measurement": -5.33}
{"compound": "C/C=C(\\C)C(=O)N[C@@H](c1ccccc1)[C@@H](O)C(=O)O[C@H]1C[C@@]2(O)[C@@H](OC(=O)c3ccccc3)[C@@H]3[C@]4(OC(C)=O)CO[C@@H]4C[C@H](O)[C@@]3(C)C(=O)[C@H](OC(C)=O)C(=C1C)C2(C)C", "measurement_name": "EC50 (log10 M)", "recorded_measurement": -7.58}

Determine from records and report EC50 (log10 M) for `CC[C@H](C)C(=O)O[C@H]1CCC=C2C=C[C@H](C)[C@H](CC[C@@H]3C[C@@H](O)CC(=O)O3)[C@H]21`
-5.53
